target: UniProt Q9UHL4
Measure: IC50

What the record says about "CC(C)[C@H](NC(=O)OCc1ccc(NC(=O)[C@@H]2CC(F)(F)CN2C(=O)CNC(=O)c2ccnc3ccccc23)cc1)C(=O)N1CCC[C@H]1B(O)O" : IC50 is 24 µM

----------
Below, each entry is listed with its recorded pEC50.
system: HEK-mFAP cells; test: CellTiter-Blue cell viability assay with HEK-mFAP cells; type: cell-based, Human; conditions: Homo sapiens, 72 h, MK-2206 / Akt inhibitor prodrugs, HEK-mFAP cells, 72 hour incubation; read-out: EC50 (prodrug alone)
pEC50: −log10 of the molar value.

Study these solved cases before continuing.
- Compound: "CCn1c(-c2nonc2N)nc2c(C#CC(C)(C)O)ncc(OC[C@H]3CCCN(C(=O)[C@@H]4CC(F)(F)CN4C(=O)CNC(=O)c4ccnc5ccccc45)C3)c21 [Compound 5188]"
  Measure: "pEC50"
  Assay result: "< 4.60"
- Compound: "O=C(NC1(c2ccc(-c3nc4ccn5c(=O)[nH]nc5c4cc3-c3ccccc3)cc2)CCC1)OCc1ccc(NC(=O)[C@@H]2CC(F)(F)CN2C(=O)CNC(=O)c2ccnc3ccccc23)cc1 [Compound 5173]"
  Measure: "pEC50"
  Assay result: "< 5.60"

Now for the compound whose pEC50 we want.
Memo: NNc1ccc(C(=O)NCC(=O)N2CC(F)(F)C[C@H]2C(=O)Nc2ccc(COC(=O)NC3(c4ccc(-c5nc6ccn7c(=O)[nH]nc7c6cc5-c5ccccc5)cc4)CCC3)cc2)cn1 [Compound 5192] , reported pEC50: < 5.52
